These entries and their values trace back to ChEMBL document CHEMBL3872225.

- tested_system: Cannabinoid receptor 1 (Homo sapiens)
- Sequence (P21554 whole entry): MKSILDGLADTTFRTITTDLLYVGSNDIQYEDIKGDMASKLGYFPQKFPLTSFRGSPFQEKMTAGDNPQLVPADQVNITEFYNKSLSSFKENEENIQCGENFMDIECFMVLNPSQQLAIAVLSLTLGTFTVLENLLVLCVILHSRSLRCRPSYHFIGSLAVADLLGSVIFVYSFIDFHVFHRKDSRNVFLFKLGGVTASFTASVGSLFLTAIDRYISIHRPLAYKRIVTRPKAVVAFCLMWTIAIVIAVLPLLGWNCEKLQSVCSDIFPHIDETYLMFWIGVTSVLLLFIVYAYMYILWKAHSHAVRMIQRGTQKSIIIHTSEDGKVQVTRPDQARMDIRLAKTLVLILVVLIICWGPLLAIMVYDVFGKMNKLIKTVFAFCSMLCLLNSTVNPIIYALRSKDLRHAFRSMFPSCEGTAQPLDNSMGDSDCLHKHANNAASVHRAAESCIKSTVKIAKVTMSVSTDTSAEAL
- experiment_description: Displacement of [3H]CP-55940 from human recombinant CB1 receptor expressed in HEK293 cell membranes incubated for 1.5 hrs
assay_metric: IC50

- compound_structure_string: "CC(C)Cc1nc2ccccc2n1C(=O)c1cccc2ccccc12"
  IC50: "> 10 µM"
- compound_structure_string: "COc1ccc(Cn2c(-c3ccc(OC)cc3)nc3ccccc32)cc1"
  IC50: "> 10 µM"
- compound_structure_string: "COc1ccc(C(=O)n2c(C3CCC3)nc3ccccc32)cc1"
  IC50: "> 10 µM"
- compound_structure_string: "COc1ccc(C(=O)n2c(C(C)(C)C)nc3ccccc32)cc1"
  IC50: "> 10 µM"
- compound_structure_string: "CCCCCc1sc2ccccc2c1C(=O)c1ccc(OC)cc1"
  IC50: "> 10 µM"
- compound_structure_string: "O=C(c1cccc2ccccc12)n1c(C2CCCCC2)nc2ccccc21"
  IC50: "4.9 µM"
- compound_structure_string: "COc1ccc(C(=O)n2c(CC(C)C)nc3ccccc32)cc1"
  IC50: "> 10 µM"
- compound_structure_string: "CCc1sc2ccccc2c1C(=O)c1cccc2ccccc12"
  IC50: "8.4 µM"

Data request: # query: IC50 of entry CCCc1sc2ccccc2c1C(=O)c1ccc(OC)cc1
Data returned: > 10 µM

Data request: # query: IC50 of entry COc1ccc(C(=O)n2c(-c3ccc(OC)cc3)nc3ccccc32)cc1
Data returned: > 10 µM

Data request: # query: IC50 of entry COc1ccc(C(=O)n2c(C3CCCC3)nc3ccccc32)cc1
Data returned: > 10 µM

Data request: # query: IC50 of entry COc1ccc(C(=O)n2c(C)nc3ccccc32)cc1
Data returned: > 10 µM

Data request: # query: IC50 of entry COc1ccc(-c2sc3ccccc3c2C(=O)c2cccc3ccccc23)cc1
Data returned: 8.4 µM

Data request: # query: IC50 of entry O=C(c1cccc2ccccc12)n1c(C2CCC2)nc2ccccc21
Data returned: 9.7 µM

Data request: # query: IC50 of entry CCCCc1nc2ccccc2n1C(=O)c1cccc2ccccc12
Data returned: 9.7 µM

Data request: # query: IC50 of entry CCCCCc1sc2ccccc2c1C(=O)c1cccc2ccccc12
Data returned: 0.8 µM

Data request: # query: IC50 of entry O=C(c1cc2ccccc2s1)c1cccc2ccccc12
Data returned: 4.5 µM

Data request: # query: IC50 of entry COc1ccc(C(=O)n2c(C3CCCCC3)nc3ccccc32)cc1
Data returned: > 10 µM

Data request: # query: IC50 of entry COc1ccc(C(=O)n2c(C(C)C)nc3ccccc32)cc1
Data returned: > 10 µM

Data request: # query: IC50 of entry CCCc1sc2ccccc2c1C(=O)c1cccc2ccccc12
Data returned: 1 µM

Data request: # query: IC50 of entry CC(C)c1nc2ccccc2n1C(=O)c1cccc2ccccc12
Data returned: > 10 µM

----------
- Species: Homo sapiens
- experiment_description: Selectivity index, ratio of Ki for displacement of [3H]CP-55940 from human recombinant CB1 receptor to Ki for displacement of [3H]CP-55940 from human recombinant CB2 receptor
assay_metric: Ratio Ki
Response field accepts a number only; no unit should be typed.

Example entries begin here.
- compound_structure_string: "O=C(c1cccc2ccccc12)n1c(C2CCC2)nc2ccccc21"
  Ratio Ki: 4.14
- compound_structure_string: "CC(C)Cc1sc2ccccc2c1C(=O)c1cccc2ccccc12"
  Ratio Ki: 1.4
- compound_structure_string: "COc1ccc(-c2nc3ccccc3n2C(=O)c2cccc3ccccc23)cc1"
  Ratio Ki: 2.57

Data request: # query: Ratio Ki of entry COc1ccc(C(=O)c2c(CC(C)C)sc3ccccc23)cc1
Data returned: 46

Data request: # query: Ratio Ki of entry O=C(c1cccc2ccccc12)n1c(C2CCCCC2)nc2ccccc21
Data returned: 7.25

Data request: # query: Ratio Ki of entry CCCc1sc2ccccc2c1C(=O)c1cccc2ccccc12
Data returned: 0.6

Data request: # query: Ratio Ki of entry CCCCc1nc2ccccc2n1C(=O)c1cccc2ccccc12
Data returned: 14.7
